FYI, the data here is from patent US20070099986A1.

For reference, IC50 measured on acetylcholinesterase from human erythrocyte origin (Homo sapiens):
Where a name gives a salt, the structure may show the parent alone.
Quick note: give the figure in µM, leave out the unit.

COMPOUND: NS(=O)(=O)c1cc(C(=O)CCCCNCCc2ccccc2OC(F)(F)F)cc2c1OCC2 [Example 6, tosylate]
EXPERIMENTAL_SYSTEM: acetylcholinesterase from human erythrocyte origin (Homo sapiens)
Sequence (P22303 32-617 isoform P22303-2 limits assumed): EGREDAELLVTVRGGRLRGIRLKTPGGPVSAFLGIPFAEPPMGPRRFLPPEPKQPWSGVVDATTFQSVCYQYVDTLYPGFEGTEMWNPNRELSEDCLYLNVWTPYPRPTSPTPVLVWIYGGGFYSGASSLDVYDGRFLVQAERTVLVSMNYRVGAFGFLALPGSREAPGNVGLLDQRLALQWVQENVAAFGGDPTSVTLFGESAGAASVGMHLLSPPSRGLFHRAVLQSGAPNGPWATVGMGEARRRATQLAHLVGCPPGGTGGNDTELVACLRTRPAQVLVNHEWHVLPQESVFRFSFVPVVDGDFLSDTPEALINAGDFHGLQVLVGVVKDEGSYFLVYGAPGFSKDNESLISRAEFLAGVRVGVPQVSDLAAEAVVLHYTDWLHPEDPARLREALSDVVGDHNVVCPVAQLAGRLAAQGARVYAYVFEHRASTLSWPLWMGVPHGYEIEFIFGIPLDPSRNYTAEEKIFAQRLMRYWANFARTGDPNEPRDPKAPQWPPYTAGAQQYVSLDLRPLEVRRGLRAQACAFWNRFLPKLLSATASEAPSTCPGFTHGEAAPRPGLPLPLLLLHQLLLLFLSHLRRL
IC50 / µM: 0.08

Next up:
// fetch IC50; item: CN(CCCCCCN(C)C(=O)Oc1ccc[n+](C)c1)C(=O)Oc1ccc[n+](C)c1 [Distigmine, distigmine, reference compound] ; system: acetylcholinesterase from human erythrocyte origin (Homo sapiens) 0.27

###

Measured melting point, listed per entry for reference.

The following compounds have reported results that may help.
CHEMICAL_SMILES: COc1ccccc1CCNCCCCCC(=O)c1cc2c(c(S(N)(=O)=O)c1)OCC2.Cl
melting point: 92 to 94 °C

CHEMICAL_SMILES: COc1ccc(C(=O)CCCCNCCc2ccccc2OC(F)(F)F)cc1S(=O)(=O)NC(C)C.Cl
melting point: 156 to 158 °C

CHEMICAL_SMILES: CC(=O)Nc1cc(C(=O)CCCCNCCc2ccccc2OC(F)(F)F)cc2c1OCC2.Cl
melting point: 120 to 122 °C

State its melting point: Cl.NS(=O)(=O)c1cc(C(=O)CCCCCNCCc2ccccc2OC(F)(F)F)cc2c1OCC2 85 to 87 °C

###

Measured melting point, listed per entry for reference.

The following molecules have reported results that may help.
MOLECULE: CC(C)NS(=O)(=O)c1cc(C(=O)CCCCNCCc2ccccc2OC(F)(F)F)cc2c1OCC2.Cl
VALUE_MEASURED: 173 to 175 °C
//
MOLECULE: Cl.NS(=O)(=O)c1cc(C(=O)CCCCNCCc2ccccc2OC(F)(F)F)cc2c1OCCO2
VALUE_MEASURED: 111 to 113 °C
//
MOLECULE: NS(=O)(=O)c1cc(C(O)CCCCNCCc2ccccc2OC(F)(F)F)cc2c1OCC2.O=C(O)/C=C\C(=O)O (stereo not drawn)
VALUE_MEASURED: 61 to 63 °C

State its melting point: CNS(=O)(=O)c1cc(C(=O)CCCCNCCc2ccccc2OC(F)(F)F)cc2c1CCC2.Cl 143 to 145 °C

State its melting point: CNS(=O)(=O)c1cc(C(=O)CCCCNCCc2ccccc2OC(F)(F)F)cc2c1OCC2.Cl 135 to 137 °C

State its melting point: COc1ccccc1CCNCCCCC(=O)c1cc2c(c(S(N)(=O)=O)c1)CCC2.Cl 106 to 108 °C

###

EXPERIMENTAL_ENDPOINT: melting point

The following compounds have reported results that may help.
CHEMICAL_SMILES: COc1ccc(C(=O)CCCCNCCc2ccccc2OC(F)(F)F)cc1S(N)(=O)=O.Cl
melting point: 169 to 171 °C
//
CHEMICAL_SMILES: Cl.NS(=O)(=O)c1cc(C(=O)CCCCNCCc2ccccc2OC(F)(F)F)cc2c1CCC2
melting point: 139 to 141 °C
//
CHEMICAL_SMILES: CS(=O)(=O)Nc1cc(C(=O)CCCCNCCc2ccccc2OC(F)(F)F)cc2c1OCC2.Cl
melting point: 112 to 114 °C
//
CHEMICAL_SMILES: Cl.NS(=O)(=O)c1cc(C(=O)CCCCNCCc2ccccc2Cl)cc2c1CCC2
melting point: 167 to 169 °C

State its melting point: Cl.NS(=O)(=O)c1cc(C(=O)CCCCCNCCc2ccccc2Cl)cc2c1OCC2 107 to 109 °C
